protocol: Unbound fraction in mice
Format: in vitro ADME
run_parameters: mouse, plasma
experimental_endpoint: fraction unbound
API doc: respond with a numeric literal and nothing else, no unit.

Request: Tell us which fraction unbound value is on record for Cc1c(CN2CCN(C(=O)[C@H](C)O)CC2)sc2c(N3CCOCC3)nc(-c3cnc(N)nc3)nc12
Result: 0.294

====

protocol: Patient population pharmacokinetic model
Format: in vivo, human
run_parameters: human, plasma, oral
experimental_endpoint: k el

Request: Tell us which k el value is on record for Cc1c(CN2CCN(C(=O)[C@H](C)O)CC2)sc2c(N3CCOCC3)nc(-c3cnc(N)nc3)nc12 [apitolisib]
Result: 2.78e-05 s⁻¹

====

protocol: Patient population pharmacokinetic model
Format: in vivo, human
run_parameters: human, plasma, po
experimental_endpoint: CL/F

Request: Tell us which CL/F value is on record for Cc1c(CN2CCN(C(=O)[C@H](C)O)CC2)sc2c(N3CCOCC3)nc(-c3cnc(N)nc3)nc12 [apitolisib]
Result: 5.07 mL/min/kg

====

protocol: Mouse pharmacokinetic model
Type: in vivo, mice
run_parameters: nude, mouse, plasma, oral
experimental_endpoint: k el (s⁻¹)
# output: bare number, implied unit s⁻¹

Request: Tell us which k el value is on record for Cc1c(CN2CCN(C(=O)[C@H](C)O)CC2)sc2c(N3CCOCC3)nc(-c3cnc(N)nc3)nc12 [apitolisib]
Result: 8.33e-05
